# System: CCRF-CEM leukemia
# runDescription: NCI-60 one-dose screen, 48 h (100 = growth as untreated, 0 = no growth, -100 = all killed)
# conditionInfo: 10 µM unless noted
The panel holds about 83,000 compounds, 20% with a hit somewhere; the sample as a whole holds those more often.
measurementType: growth (%)
Write the number in % without appending the unit.

A selection of reference data follows.
Requested field: growth. Item: O=[N+]([O-])c1cnc(N2CCN(CC3CC3)CC2)nc1N1CCN(CC2CC2)CC1 106

// repeat for O=c1cc(CSc2nnc(-c3ccc(F)cc3)o2)c2ccc3ccccc3c2o1 and report 112

Lookup CCOc1cc2ncc(C#N)c(Nc3ccc(F)c(Cl)c3)c2cc1NC(=O)CC1CCSS1 (centres undefined) -20.2

Now the same for CN(C)c1ccc(N=Nc2ccccn2)c(O)c1 2.26

Again, but for CN(C)S(=O)(=O)c1cccc(-c2nc3sc4c(c3c(=O)[nH]2)CCCC4)c1 35.5

Turning now to a further record.
Which growth value is on record for CN(C)[C@@H]1C(=O)C(C(=O)NCc2nc3[nH]cnc(=S)c3[nH]2)=C(O)[C@@]2(O)C(=O)C3=C(O)c4c(O)cccc4[C@@](C)(O)[C@H]3C[C@@H]12 ? 14.1

----------
As shown below, each of these compounds has a reported growth value.
# Test system: COLO 205 colon
# runDescription: NCI-60 one-dose screen, 48 h (100 = growth as untreated, 0 = no growth, -100 = all killed)
# conditionInfo: 10 µM unless noted
About 83,000 compounds went through this panel and 20% of them were active in at least one assay; those are over-represented in the sample as a whole.
Only the number, expressed in %, is required.

Take a look at these entries with their results.
So what's the measured growth for this one? CN(C)CCCNc1c2ccccc2nc2ccccc12 100

And the next one, COc1cccc2c1C(=O)c1c(O)c3c(c(O)c1C2=O)C[C@](O)(C(=O)CO)C[C@H]3O[C@@H]1C[C@@H](NC(=O)CCCCCN(C)C2(c3ccc(F)cc3)CC3CCC2C3)[C@H](O)[C@@H](C)O1 (stereo partly drawn) ? -63.7

And CCOc1ccc(-n2nc(C(=O)Nc3cc(OC)c(OC)c(OC)c3)nc2-c2cc(OC)c(OC)c(OC)c2)cc1 ? 80.3

Same question for Cc1ccc(O)c(N2C(=NCc3ccco3)NS(=O)(=O)c3cnccc32)c1 please. 125

Then what about the compound Cc1cc(N2CCN(c3ccnc4cc(Cl)ccc34)CC2)nc(N2CCOCC2)n1 ? 73

# iterate: Cc1nn(-c2cc(=O)[nH]c3ccccc23)c(N)c1C#N 123

Entry to check: CC(O)CN(CC(C)O)c1ccc2c(c1)Cc1cc([N+](=O)[O-])ccc1-2 (stereo not drawn) 104

Continuing:
Look at this compound and give its reported growth. O=C(Nc1ccc(Cl)cc1)c1cc2cc(F)ccc2cc1O 69.5

----------
# Tested on: U251 CNS
# runDescription: NCI-60 one-dose screen, 48 h
# conditionInfo: 10 µM unless noted
The panel holds about 83,000 compounds, 20% with a hit somewhere; the sample as a whole holds those more often. The source made the active and inactive calls. How the source made its calls: active means growth percent below 10; inactive means the rest.
Log the outcome using a class from 1.0 = active, 0.0 = inactive

Record excerpt, results attached:
# lookup: test call for O=[N+]([O-])c1ccccc1/C=N\NC(=S)N/N=C/c1ccccc1[N+](=O)[O-] 0.0

Another compound: Cn1ncc2c(=O)nc3c(-c4ccccc4)n[nH]n3c21 0.0

Similarly, COc1ccc(-c2nnc(SCC(=O)c3ccc(Cl)cc3)o2)cc1 ? 0.0

Try the compound CNC(=O)c1cc(Oc2ccc(NC(=O)Nc3ccc(Cl)c(SC)c3)c(F)c2)ccn1 0.0

Request: CCCCn1c(-c2ccc(C(=O)O/N=C(\N)c3ccc4c(c3)OCO4)cc2)nc(-c2ccccc2)c1-c1ccccc1 0.0

Could you now consider this next compound?
I'd appreciate the recorded outcome for COc1cc2c(cc1-c1c(C)noc1C)ncc1nc(-c3ccccn3)n([C@H](C)COC(F)F)c12 from this test. 0.0

----------
# Test system: HOP-92 NSCLC
# runDescription: NCI-60 one-dose screen, 48 h
# conditionInfo: 10 µM unless noted
# Protocol: Growth inhibition of the HOP-92 human Non-Small Cell Lung tumor cell line is measured as a screen for anti-cancer activity. Cells are grown in 96 well plates and exposed to the test compound for 48 hours. Compounds are tested at a single concentration, which is 10^-5 M for most compounds. The reported endpoint is percent growth (GI% or GIPRCNT), where numbers from 0 - 100% represent growth inhibition, and numbers from -100% - 0 represent cell death. […]
About 83,000 compounds went through this panel and 20% of them were active in at least one assay; those are over-represented in the sample as a whole. Activity calls are given as the source filed them. How the source made its calls: active means growth percent below 10; inactive means the rest.
Outcome (select one): 1 (active), 0 (inactive)

Known results for molecules:
Query: recorded result category for CC[C@@H]1O[C@H](O[C@@H](c2cnc[nH]2)[C@H](NC(=O)c2nc([C@H](CC(N)=O)NC[C@@H](N)C(N)=O)nc(N)c2C)C(=O)N[C@H](C)[C@H](O)[C@H](C)C(=O)N[C@@H](C(=O)NCCc2nc(-c3nc(C(=O)NCCCCN=C(N)N)cs3)cs2)[C@@H](C)O)[C@H](O[C@@H]2O[C@H](CO)[C@H](O)[C@H](OC(N)=O)[C@@H]2O)[C@H](C)[C@@H]1C in this test 0

Can you handle COc1ccccc1Nc1nc(-c2cc3cccc(C(F)(F)F)c3oc2=O)cs1 next? 0

Next record, please: COc1cccc(-c2nc3sccn3c2-c2ccnc(NCCNS(=O)(=O)c3ccccc3)c2)c1 0

Try this molecule too: Cn1nc(N)c2cc([C@@H]3Nc4ccc5[nH]ncc5c4[C@H]4C5CCC(C5)[C@@H]34)ccc21 (some centres not stated) 0

Note, next up: COc1ccc(NC2=C(Sc3nc(C)cc(C)n3)C(=O)N(Cc3ccccc3)C2=O)cc1Cl 0

Ok, now COc1ccc(SC2c3ccc(C)cc3Oc3nc(N)c(C#N)c(N)c32)cc1 (configuration not stated) 1

Next record, please: Cn1ncc2c(=O)nc3c(-c4ccccc4)n[nH]n3c21 0

Follow-up entry: COc1ccc(-n2nc(C)c3c(Nc4ccc(NC(=O)Nc5cc(C(F)(F)F)ccc5F)cc4)ncnc32)cc1 0

New cases:
Which outcome was entered for the molecule CCN(CC)c1ccc(-c2cc(-c3cc(OC)c(OC)c(OC)c3)nc(N3CCOCC3)c2C#N)cc1 in this test? 1

Then this molecule: O=C(Nc1ccccc1Cl)c1ccc(NC2=C(Cl)C(=O)N(C3CCCCC3)C2=O)cc1 1

Entry COc1ccc(NC(=O)c2ccc(/C=C/C(=O)c3ncc[nH]3)cc2)cc1 please 0

Moving on to the next molecule: CC[N+](CC)=c1sc2c(s1)C(c1ccc(Cl)cc1)Oc1ccc(Cl)cc1-2 (configuration not stated) 1

Moving on to NC(CSC(c1ccccc1)(c1ccccc1)c1ccc(Cl)cc1)C(=O)O (configuration not stated) 1

Cc1cc(N[C@@H]2CCC[C@H](Nc3ccnc4cc(Cl)ccc34)C2)nc(N2CCCCCC2)n1 ? 1

Now give it for COc1ccc(/C=N/C2=C(C#N)C(c3ccc(N(C)C)cc3)c3ccc4ccccc4c3O2)cc1 (configuration not stated) too. 0

Proceed to O=C(COc1ccc(/C=C2\COc3ccccc3C2=O)cc1)Nc1nccs1 0

Likewise for CCCCC(=O)OCC1OC(n2cnc3c(=S)nc[nH]c32)C(OC(=O)CCCC)C1OC(=O)CCCC (configuration not stated) ? 0

----------
# System: NCI-H23 lung
# runDescription: NCI-60 one-dose screen, 48 h (100 = growth as untreated, 0 = no growth, -100 = all killed)
# conditionInfo: 10 µM unless noted
# Protocol: Growth inhibition of the NCI-H23 human Non-Small Cell Lung tumor cell line is measured as a screen for anti-cancer activity. Cells are grown in 96 well plates and exposed to the test compound for 48 hours. Compounds are tested at a single concentration, which is 10^-5 M for most compounds. The reported endpoint is percent growth (GI% or GIPRCNT), where numbers from 0 - 100% represent growth inhibition, and numbers from -100% - 0 represent cell death. […]
Compounds without any hit were thinned out: in the full panel of roughly 83,000, 20% have a hit.
Label Y when growth >= 30%; otherwise N.

Previously resolved entries follow.
growth >= 30% for COc1ccc(-c2cc(-c3ccc(Nc4ccnc5cc(Cl)ccc45)cc3)nc(N3CCOCC3)n2)cc1 ? Y

What do you have for O=C(CN(C(=O)Cn1c(=O)n2nnnc2c2ccccc21)c1ccccc1C(F)(F)F)Nc1ccc(C(F)(F)F)cc1 ? Y

And CCCCCCCCCCCCC[N+](C)(C)Cc1ccccc1 ? N

Others:
For this compound, is measured growth 30% or higher? COc1ccc(-c2cc(C(=O)N=Nc3c(O)[nH]c4ccc(Br)cc34)no2)cc1 Y

# iterate: CN1CCN(c2ccc3nc(-c4ccc(OCCCCN5CCN(CCCCN6C(=O)c7cccc8cccc(c78)C6=O)CC5)cc4)[nH]c3c2)CC1 Y

Would you mind doing CCN(CC)c1ccc(/C=N\NC(=O)/C=C/C=C/c2ccc3c(c2)OCO3)c(O)c1 as well? Y

Consider next the compound NCCNc1nc(Nc2ccc(-c3nc4ccccc4[nH]3)cc2)c2cn[nH]c2n1 in the same way. Y

How about COc1ccc(S(=O)(=O)N2CC3(COC3)C2)cc1NC(=O)c1[nH]c(C)c2c1CCCCC2=O ? Y

Let us now turn to CS(=O)(=O)c1ccc(-n2nc(-c3ccc(Br)cc3)c3ccccc3c2=O)cc1 Y
